tested on: Liver microsomes; assay: Intrinsic clearance in human liver microsomes; assay type: ADME, Microsome
measurementLabel: CLH

Query CLH for COc1cc2ncnc(Oc3cccc(NC(=O)Nc4cc(C(C)(C)C(F)(F)F)on4)c3)c2cc1OC
< 23 µL/min/mg

----------
test: Tmax in Cynomolgus monkey at 10 mg/kg, po; format: ADME, organism-based, Macaca fascicularis; parameters: dose 10 mg/kg, route oral; conditions: in vivo
measurementLabel: Tmax

Query Tmax for COc1cc2ncnc(Oc3cccc(NC(=O)Nc4cc(C(C)(C)C(F)(F)F)on4)c3)c2cc1OC [CEP-32496]
4 h

----------
molecular target: Macrophage colony-stimulating factor 1 receptor (Homo sapiens); assay: Inhibition of CSF1R in human HEK293 cells after 1 hr by competition binding assay
Sequence (P07333 whole entry): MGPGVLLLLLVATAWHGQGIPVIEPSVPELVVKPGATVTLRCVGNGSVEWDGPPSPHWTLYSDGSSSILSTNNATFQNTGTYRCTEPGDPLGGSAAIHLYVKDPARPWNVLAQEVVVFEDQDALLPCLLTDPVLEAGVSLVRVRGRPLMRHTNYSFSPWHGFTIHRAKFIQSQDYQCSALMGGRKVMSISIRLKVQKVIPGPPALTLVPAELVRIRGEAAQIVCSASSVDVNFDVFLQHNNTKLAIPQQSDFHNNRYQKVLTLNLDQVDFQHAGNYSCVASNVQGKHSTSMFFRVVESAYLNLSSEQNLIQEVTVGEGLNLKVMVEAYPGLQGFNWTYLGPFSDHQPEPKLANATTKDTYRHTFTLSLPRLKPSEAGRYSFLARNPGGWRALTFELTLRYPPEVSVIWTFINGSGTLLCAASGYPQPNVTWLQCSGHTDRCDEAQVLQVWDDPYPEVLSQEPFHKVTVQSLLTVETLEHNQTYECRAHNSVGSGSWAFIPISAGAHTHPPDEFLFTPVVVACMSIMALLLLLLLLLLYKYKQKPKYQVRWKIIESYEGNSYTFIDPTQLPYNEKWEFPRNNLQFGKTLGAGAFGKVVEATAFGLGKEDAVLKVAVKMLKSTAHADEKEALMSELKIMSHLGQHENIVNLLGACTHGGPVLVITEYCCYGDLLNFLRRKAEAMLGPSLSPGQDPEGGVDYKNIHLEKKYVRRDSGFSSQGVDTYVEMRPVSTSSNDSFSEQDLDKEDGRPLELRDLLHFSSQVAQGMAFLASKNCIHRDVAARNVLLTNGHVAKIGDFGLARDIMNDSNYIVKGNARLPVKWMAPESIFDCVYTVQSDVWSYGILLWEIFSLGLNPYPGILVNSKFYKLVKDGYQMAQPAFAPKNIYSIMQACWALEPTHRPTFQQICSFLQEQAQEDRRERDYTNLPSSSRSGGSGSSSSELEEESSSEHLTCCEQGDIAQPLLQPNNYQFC
measurementLabel: pKd
In simple prose, pKd is minus the logarithm base ten of a concentration in moles per litre.

Query pKd for COc1cc2ncnc(Oc3cccc(NC(=O)Nc4cc(C(C)(C)C(F)(F)F)on4)c3)c2cc1OC
8.05

----------
measurementLabel: log10(Kd) (log10 of the value in nM)
Transform log10 | Measure Kd | Unit nM

Print Serine/threonine-protein kinase B-raf (Homo sapiens, UniProt P15056, V600E) log10(Kd) for COc1cc2ncnc(Oc3cccc(NC(=O)Nc4cc(C(C)(C)C(F)(F)F)nn4-c4ccccc4)c3)c2cc1OC .
2.43

Print Serine/threonine-protein kinase B-raf (Homo sapiens, UniProt P15056, V600E) log10(Kd) for COc1cc2ncnc(Oc3cccc(NC(=O)Nc4cc(C(C)(C)C(F)(F)F)no4)c3)c2cc1OC .
1.82

Print Serine/threonine-protein kinase B-raf (Homo sapiens, UniProt P15056, V600E) log10(Kd) for COc1cc2ncnc(Oc3cccc(NC(=O)Nc4cc(C5(C(F)(F)F)CCC5)no4)c3)c2cc1OC .
2.11

Print Serine/threonine-protein kinase B-raf (Homo sapiens, UniProt P15056, V600E) log10(Kd) for COc1cc2ncnc(Oc3cccc(NC(=O)Nc4cc(C(C)(C)C)nn4C)c3)c2cc1OC .
1.94

Print Serine/threonine-protein kinase B-raf (Homo sapiens, UniProt P15056, V600E) log10(Kd) for COc1cc2ncnc(Oc3cccc(NC(=O)Nc4cc(C(C)(C)C)nn4-c4ccccc4)c3)c2cc1OC .
2.47

Print Serine/threonine-protein kinase B-raf (Homo sapiens, UniProt P15056, V600E) log10(Kd) for COc1cc2ncnc(Oc3cccc(NC(=O)Nc4cc(C(C)(C)F)no4)c3)c2cc1OC .
1.64

Print Serine/threonine-protein kinase B-raf (Homo sapiens, UniProt P15056, V600E) log10(Kd) for COc1cc2ncnc(Sc3cccc(NC(=O)Nc4cc(C(C)(CF)CF)on4)c3)c2cc1OC .
1.70

Print Serine/threonine-protein kinase B-raf (Homo sapiens, UniProt P15056, V600E) log10(Kd) for COc1cc2ncnc(Oc3cccc(NC(=O)Nc4cc(C(C)(C)F)on4)c3)c2cc1OC .
1.46

Print Serine/threonine-protein kinase B-raf (Homo sapiens, UniProt P15056, V600E) log10(Kd) for COc1cc2ncnc(Oc3cccc(NC(=O)Nc4cc(C(F)(F)F)no4)c3)c2cc1OC .
1.89

----------
molecular target: Mitogen-activated protein kinase 1 (Homo sapiens, UniProt P28482); test: Inhibition of ERK2 in human HEK293 cells after 1 hr by competition binding assay
Sequence (P28482 whole entry): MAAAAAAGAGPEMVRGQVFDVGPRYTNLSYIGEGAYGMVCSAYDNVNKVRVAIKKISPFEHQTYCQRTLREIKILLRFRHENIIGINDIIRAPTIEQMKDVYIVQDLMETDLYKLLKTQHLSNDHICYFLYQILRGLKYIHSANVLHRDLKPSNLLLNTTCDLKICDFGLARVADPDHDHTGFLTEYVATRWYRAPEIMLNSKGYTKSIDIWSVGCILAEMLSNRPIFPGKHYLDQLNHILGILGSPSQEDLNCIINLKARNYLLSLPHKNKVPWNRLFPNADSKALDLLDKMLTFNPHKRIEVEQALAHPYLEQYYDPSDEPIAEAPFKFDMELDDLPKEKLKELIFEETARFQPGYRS
measurementLabel: Kd

Query Kd for COc1cc2ncnc(Oc3cccc(NC(=O)Nc4cc(C(C)(C)C(F)(F)F)on4)c3)c2cc1OC
> 10 µM

----------
experiment: AUC (infinity) in Sprague-Dawley rat at 10 mg/kg, po; format: ADME, organism-based; design: time infinity, dose 10 mg/kg, route oral; details: plasma
Exercise: for every item that follows, state its recorded AUC(0-inf).
Express it in µM·h; write the number only.

Query AUC(0-inf) for COc1cc2ncnc(Oc3cccc(NC(=O)Nc4cc(C(C)(C)C(F)(F)F)on4)c3)c2cc1OC [CEP-32496]
74.4

Query AUC(0-inf) for COc1cc2ncnc(Oc3cccc(NC(=O)Nc4cc(C(C)(C)C(F)(F)F)no4)c3)c2cc1OC
40.7

Query AUC(0-inf) for COc1cc2ncnc(Oc3cccc(NC(=O)Nc4cc(C(C)(C)C)on4)c3)c2cc1OC
17

Query AUC(0-inf) for COc1cc2ncnc(Oc3cccc(NC(=O)Nc4cc(C(C)(C)C)no4)c3)c2cc1OC
1.9

Query AUC(0-inf) for COc1cc2ncnc(Oc3cccc(NC(=O)Nc4cc(C(C)(C)F)no4)c3)c2cc1OC
42

Query AUC(0-inf) for COc1cc2ncnc(Oc3cccc(NC(=O)Nc4cc(C(C)(C)C)nn4-c4ccccc4)c3)c2cc1OC
25.9

Query AUC(0-inf) for COc1cc2ncnc(Oc3cccc(NC(=O)Nc4cc(C(C)(C)F)on4)c3)c2cc1OC
127

----------
experiment: Tmax in athymic nude mouse at 100 mg/kg, po; type: ADME, organism-based; design: dose 100 mg/kg, route oral; details: in vivo
measurementLabel: Tmax
Answer by giving the amount and then stating its unit.

Query Tmax for COc1cc2ncnc(Oc3cccc(NC(=O)Nc4cc(C(C)(C)C(F)(F)F)on4)c3)c2cc1OC [CEP-32496]
1.3 h

----------
assay: Clearance in Cynomolgus monkey at 1 mg/kg, iv and 10 mg/kg, po; format: ADME, organism-based, Macaca fascicularis; conditions: in vivo
measurementLabel: clearance (mL/min/kg)
Express it in mL/min/kg; write the number only.

Query clearance for COc1cc2ncnc(Oc3cccc(NC(=O)Nc4cc(C(C)(C)C(F)(F)F)on4)c3)c2cc1OC
6.7

----------
Exercise: for every item that follows, state its recorded Tmax.
test: Tmax in Sprague-Dawley rat at 10 mg/kg, po; format: ADME, organism-based; parameters: dose 10 mg/kg, route oral; conditions: in vivo
Express it in h; write the number only.

Query Tmax for COc1cc2ncnc(Oc3cccc(NC(=O)Nc4cc(C(C)(C)F)no4)c3)c2cc1OC
2

Query Tmax for COc1cc2ncnc(Oc3cccc(NC(=O)Nc4cc(C(C)(C)C)on4)c3)c2cc1OC
0.8

Query Tmax for COc1cc2ncnc(Oc3cccc(NC(=O)Nc4cc(C(C)(C)C(F)(F)F)no4)c3)c2cc1OC
1.7

Query Tmax for COc1cc2ncnc(Oc3cccc(NC(=O)Nc4cc(C(C)(C)F)on4)c3)c2cc1OC
2

Query Tmax for COc1cc2ncnc(Oc3cccc(NC(=O)Nc4cc(C(C)(C)C(F)(F)F)on4)c3)c2cc1OC [CEP-32496]
2

Query Tmax for COc1cc2ncnc(Oc3cccc(NC(=O)Nc4cc(C(C)(C)C)nn4-c4ccccc4)c3)c2cc1OC
1.3

Query Tmax for COc1cc2ncnc(Oc3cccc(NC(=O)Nc4cc(C(C)(C)C)no4)c3)c2cc1OC
0.8

----------
biological target: Serine/threonine-protein kinase B-raf (Homo sapiens, UniProt P15056, V600E)
Sequence (P15056 2-766 V600E limits assumed): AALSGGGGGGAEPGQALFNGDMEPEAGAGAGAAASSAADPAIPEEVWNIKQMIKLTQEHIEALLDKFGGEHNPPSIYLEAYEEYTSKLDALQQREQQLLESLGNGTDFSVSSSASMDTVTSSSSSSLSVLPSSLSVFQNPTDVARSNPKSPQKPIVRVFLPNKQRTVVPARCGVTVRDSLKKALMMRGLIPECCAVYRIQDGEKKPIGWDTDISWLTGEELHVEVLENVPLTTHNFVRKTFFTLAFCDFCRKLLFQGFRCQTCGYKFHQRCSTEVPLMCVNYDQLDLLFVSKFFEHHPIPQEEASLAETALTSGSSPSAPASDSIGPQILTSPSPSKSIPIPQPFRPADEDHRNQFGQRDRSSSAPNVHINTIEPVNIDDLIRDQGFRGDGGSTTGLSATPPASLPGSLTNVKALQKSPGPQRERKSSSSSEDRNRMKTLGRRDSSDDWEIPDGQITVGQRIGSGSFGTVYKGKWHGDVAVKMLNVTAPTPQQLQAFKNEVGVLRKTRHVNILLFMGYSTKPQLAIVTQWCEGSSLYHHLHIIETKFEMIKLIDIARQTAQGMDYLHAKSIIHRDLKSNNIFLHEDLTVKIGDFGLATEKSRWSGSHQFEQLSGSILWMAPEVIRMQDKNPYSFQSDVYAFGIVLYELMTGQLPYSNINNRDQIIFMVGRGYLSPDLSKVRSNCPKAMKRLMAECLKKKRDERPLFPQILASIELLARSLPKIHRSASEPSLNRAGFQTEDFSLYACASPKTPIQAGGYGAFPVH
Measured Kd determines class: zone 1 (below 0.05 µM), zone 2 (0.05 µM to below 0.1 µM), zone 3 (0.1 µM or more)

Class for COc1cc2ncnc(Sc3cccc(NC(=O)Nc4cc(C(C)(C)F)no4)c3)c2cc1OC ?
zone 1

Class for COCC(C)(C)c1cc(NC(=O)Nc2cccc(Oc3ncnc4cc(OC)c(OC)cc34)c2)no1 ?
zone 3

Class for COc1cc2ncnc(Oc3cccc(NC(=O)Nc4cc(C(C)(C)C)nn4Cc4ccccc4)c3)c2cc1OC ?
zone 3

Class for COc1cc2ncnc(Oc3cccc(NC(=O)Nc4cc(C(C)(F)F)no4)c3)c2cc1OC ?
zone 2

Class for COc1cc2ncnc(Oc3cccc(NC(=O)Nc4cc(C5CCCC5)on4)c3)c2cc1OC ?
zone 1

Class for COc1cc2ncnc(Oc3cccc(NC(=O)Nc4cnn(C(C)(C)C)c4)c3)c2cc1OC ?
zone 2

Class for COc1cc2ncnc(Sc3cccc(NC(=O)Nc4cc(C5(C(F)(F)F)CC5)on4)c3)c2cc1OC ?
zone 1

Class for COc1cc2ncnc(Oc3cccc(NC(=O)Nc4cc(-c5ccccc5)on4)c3)c2cc1OC ?
zone 3

Class for COc1cc2ncnc(Oc3cccc(NC(=O)Nc4cc(C(C)C)no4)c3)c2cc1OC ?
zone 1

Class for COc1cc2ncnc(Oc3cccc(NC(=O)Nc4cc(C5CCCC5)no4)c3)c2cc1OC ?
zone 3

Class for COc1cc2ncnc(Oc3cccc(NC(=O)Nc4cc(C(C)(C)C)nn4C4CCCCC4)c3)c2cc1OC ?
zone 3

Class for COc1cc2ncnc(Sc3cccc(NC(=O)Nc4cc(C(C)(C)C(F)(F)F)on4)c3)c2cc1OC ?
zone 2

Class for COc1cc2ncnc(Oc3cccc(NC(=O)Nc4cc(C(C)C)on4)c3)c2cc1OC ?
zone 1

Class for COc1cc2ncnc(Oc3cccc(NC(=O)Nc4cc(-c5ccccc5)no4)c3)c2cc1OC ?
zone 3

Class for COc1cc2ncnc(Oc3cccc(NC(=O)Nc4cc(C(C)(C)C(F)(F)F)on4)c3)c2cc1OC ?
zone 1

Class for COc1cc2ncnc(Oc3cccc(NC(=O)Nc4cc(C(C)(C)C#N)no4)c3)c2cc1OC ?
zone 1

Class for COc1cc2ncnc(Oc3cccc(NC(=O)Nc4cc(C)on4)c3)c2cc1OC ?
zone 3

Value source: ChEMBL document CHEMBL2029242
